Hello, the source for this data is ChEMBL document CHEMBL1201862, in case you need it.

- Tested on: SF-268
- EXPERIMENT NOTES: NCI tumour cell line growth inhibition, 48 h
Active and inactive are the calls of the source. Rule as the data show it: active = GI50 up to about 1.1 µM and inactive = higher.
Give your call using only these classes: yes = active, no = inactive

Example entries and their recorded answers appear below.
Cc1ccc(-c2n[nH]c(=O)n2/N=C\c2ccc([N+](=O)[O-])cc2)cc1
no
CC1(C)OC2C(O1)[C@H]1OC(C(Cl)(Cl)Cl)=N[C@H]1C(I)[C@H]2N1C(=O)c2ccccc2C1=O (some centres undefined)
no
NC1=CN(Cc2ccccc2)C2=N/C(=C\c3ccccc3O)C(=O)N12
no
CN1CCN(CCCCN2c3ccccc3Sc3ccc(C(=O)c4ccccc4)cc32)CC1
no
C=CCOc1ccc(C(=N/NC(=O)c2ccccc2)/N=N/c2ccc([N+](=O)[O-])cc2)cc1OC
no
COc1ccc(NCc2cc(OC)c(OC)c(OC)c2)cc1
yes
COc1cc2c(c(OC)c1OC)-c1ccc(OC)c(=O)cc1C(NC(=O)c1ccc(N=[N+]=[N-])cc1)CC2 (centres undefined)
yes
CCOC(=O)c1c(SC(=O)C(C)(C)Oc2ccc(Cl)cc2)n(-c2ccccc2)c(=S)n(-c2ccccc2)c1=O
no

Next item in the queue.
Task item: Status in this test for COc1ccc(-c2nc(O)c3ccccc3n2)c(OC)c1 ?
Reply: no
